biological target: human mGlu2 receptor (Homo sapiens, UniProt Q14416); construct: expressed in transfected cells; host or cells: CHO cells (membrane preparation); test: [35S]GTPγS binding assay (mGluR2 negative allosteric modulation); assay type: biochemical; details: membranes from CHO cells transfected with human mGlu2 receptor; glutamate 60 μM; pIC50 = −log IC50 (M); read-out: GTPγS - hmGluR2 anGT pIC50 (converted)
Sequence (Q14416 19-872): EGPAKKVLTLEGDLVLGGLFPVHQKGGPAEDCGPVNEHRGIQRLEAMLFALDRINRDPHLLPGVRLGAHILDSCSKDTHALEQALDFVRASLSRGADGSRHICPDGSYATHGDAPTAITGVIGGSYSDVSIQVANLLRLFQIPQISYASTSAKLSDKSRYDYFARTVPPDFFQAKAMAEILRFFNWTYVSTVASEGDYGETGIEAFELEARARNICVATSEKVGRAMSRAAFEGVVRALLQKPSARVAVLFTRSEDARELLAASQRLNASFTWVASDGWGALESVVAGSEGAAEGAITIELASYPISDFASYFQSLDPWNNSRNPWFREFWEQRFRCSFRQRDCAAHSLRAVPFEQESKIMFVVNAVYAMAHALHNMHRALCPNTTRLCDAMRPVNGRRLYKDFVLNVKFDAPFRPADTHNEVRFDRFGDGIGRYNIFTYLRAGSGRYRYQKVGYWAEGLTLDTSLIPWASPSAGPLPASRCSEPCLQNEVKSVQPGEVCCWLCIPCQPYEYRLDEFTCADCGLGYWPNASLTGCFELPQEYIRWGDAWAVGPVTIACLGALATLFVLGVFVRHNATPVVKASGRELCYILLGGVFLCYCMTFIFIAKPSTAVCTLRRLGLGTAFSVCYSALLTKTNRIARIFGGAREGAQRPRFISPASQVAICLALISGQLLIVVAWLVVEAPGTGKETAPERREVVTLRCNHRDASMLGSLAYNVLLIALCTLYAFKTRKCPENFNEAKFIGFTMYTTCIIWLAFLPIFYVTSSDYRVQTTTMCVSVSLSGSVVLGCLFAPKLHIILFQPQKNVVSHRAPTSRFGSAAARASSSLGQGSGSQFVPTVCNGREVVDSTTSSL
For each entry below, report its IC50 value.
Give just the number in M; leave the unit off.

Q: Look at this compound and give its reported IC50. "CCN(C)c1cc(-c2cnn3c2C(=O)N(c2ccc(C(F)(F)F)cc2)C[C@@H]3C)ccn1"
Result: 6.17e-09

Q: Look at this compound and give its reported IC50. "CCc1cc(-c2cnn3c2C(=O)N(c2ccc(C(F)(F)F)cc2)C[C@@H]3C)ccn1"
Result: 6.31e-09

Q: What value of IC50 has been recorded for this entry: "COCc1cc(N2C[C@H](C)n3ncc(-c4ccnc(C)c4)c3C2=O)ccc1C(F)(F)F"
Result: 2.51e-08

---

Provide the reported Emax of each item.
Biological target: human mGlu2 receptor (Homo sapiens)
Construct: expressed in transfected cells; host or cells: CHO cells (membrane preparation)
Test: [35S]GTPγS binding assay (mGluR2 negative allosteric modulation)
Assay type: biochemical
Settings: relative maximal effect: maximal % inhibition relative to the control glutamate response; read-out: GTPγS - hmGluR2 anGT Emax
Description: 1) [^35S]GTPγS binding assay The [^35S]GTPγS binding assay is a functional membrane-based assay used to study G-protein coupled receptor (GPCR) function whereby incorporation of a non-hydrolysable form of GTP, [^35S]GTPγS (guanosine 5′-triphosphate, labelled with gamma-emitting ^35S), is measured. […] CHO-cells were cultured to pre-confluence and stimulated with 5 mM butyrate for 24 h. […] Protein concentration was determined by the Bradford method (Bio-Rad, USA) with bovine serum albumin as standard. […]
Express the reported value numerically, then name its unit.

Q: Param readout= Emax; system= human mGlu2 receptor (Homo sapiens); entry= Cc1cc(-c2cnn3c2C(=O)N(c2cc(F)c(C(F)(F)F)c(F)c2)C[C@@H]3C)ccn1 [compound 132] ; returns value.
Result: 103%

Q: So what Emax did COc1cc(-c2cnn3c2C(=O)N(c2ccc(C(F)(F)F)c(OC)n2)C[C@@H]3C)ccn1 [compound 240] get with human mGlu2 receptor (Homo sapiens)?
Result: 109%

Q: Give human mGlu2 receptor (Homo sapiens) Emax for Cc1cc(-c2cnn3c2C(=O)N(c2cc(Cl)c(Cl)cn2)C[C@@H]3C)ccn1 [compound 203]
Result: 105%

Q: Value wanted: Emax (human mGlu2 receptor (Homo sapiens)) of entry Cc1cc(-c2cnn3c2C(=O)N(c2ccc(C(F)(F)F)cc2)CC3)ccn1 [compound 40]
Result: 105%

Q: Provide the documented Emax with human mGlu2 receptor (Homo sapiens) as the system for Cc1cc(-c2cnn3c2C(=O)N(c2ccc(C4CC4)cc2)C[C@@H]3C)ccn1 [compound 156]
Result: 106%

Q: # returns recorded Emax (system: human mGlu2 receptor (Homo sapiens)) for CCOc1ccc(C(F)(F)F)c(N2C[C@H](C)n3ncc(-c4ccnc(C)c4)c3C2=O)n1 [compound 199]
Result: 67%

Q: Could you share what Emax was measured for CC(=O)N1CCN(c2cc(-c3cnn4c3C(=O)N(c3ccc(C(F)(F)F)cc3)C[C@@H]4C)ccn2)CC1 [compound 106] , tested on human mGlu2 receptor (Homo sapiens)?
Result: 109%

Q: Give Emax (human mGlu2 receptor (Homo sapiens)) of the following compound: CCOc1cc(N2C[C@@H](C)n3ncc(-c4ccnc(C)c4)c3C2=O)ccc1C(F)(F)F [compound 31]
Result: 107%

Q: API: value(readout=Emax, system=human mGlu2 receptor (Homo sapiens)) for record Cc1cc(-c2cnn3c2C(=O)N(c2ccc(Cl)cc2Cl)CC3)ccn1 [compound 244]
Result: 80%

Q: What is its Emax for human mGlu2 receptor (Homo sapiens)? Entry: Cc1cc(-c2cnn3c2C(=O)N(c2cccc(C(F)(F)F)c2)C[C@@H]3C)ccn1 [compound 23]
Result: 104%

Q: Checklist item: Emax tested on human mGlu2 receptor (Homo sapiens), entry Cc1cc(-c2cnn3c2C(=O)N(c2cc(F)cc(F)c2)C[C@@H]3C)ccn1 [compound 82] , value?
Result: 101%

Q: Any idea what Emax came out for Cc1cc(-c2cnn3c2C(=O)N(c2ccc(C(F)(F)F)c(F)c2)C[C@@H]3C)ccn1 [compound 10] on human mGlu2 receptor (Homo sapiens)?
Result: 104%

Q: Checklist item: Emax tested on human mGlu2 receptor (Homo sapiens), entry CCc1cc(-c2cnn3c2C(=O)N(c2ccc(C(F)(F)F)cc2)C[C@@H]3C)ccn1 [compound 46] , value?
Result: 105%

Q: Which measured Emax belongs to COCc1cc(N2C[C@H](C)n3ncc(-c4ccnc(C)c4)c3C2=O)ccc1C(F)(F)F [compound 158] , tested on human mGlu2 receptor (Homo sapiens)?
Result: 106%

Q: State its Emax on human mGlu2 receptor (Homo sapiens): CCNc1cc(-c2cnn3c2C(=O)N(c2ccc(C(F)(F)F)c(C)c2)C[C@@H]3C)ccn1 [compound 256]
Result: 108%

Q: Param readout= Emax; system= human mGlu2 receptor (Homo sapiens); entry= Cc1cc(-c2cnn3c2C(=O)N(c2ccc(C(F)(F)F)c(Cl)c2)C[C@@H]3C)ccn1 [compound 3] ; returns value.
Result: 106%

Q: Request body: readout Emax, system human mGlu2 receptor (Homo sapiens), query CCNc1cc(-c2cnn3c2C(=O)N(c2ccc(C(F)(F)F)c(Cl)c2)C[C@@H]3C)ccn1 [compound 255] . Return the value.
Result: 107%

Q: Lab note: need Emax for CCOc1nc(N2C[C@H](C)n3ncc(-c4ccnc(C)c4)c3C2=O)ccc1Cl [compound 201] on human mGlu2 receptor (Homo sapiens), anyone have it?
Result: 105%

Q: Give human mGlu2 receptor (Homo sapiens) Emax for Cc1cc(-c2cnn3c2C(=O)N(c2ccccc2)C[C@@H]3C)ccn1 [compound 86]
Result: 102%

Q: Checklist item: Emax tested on human mGlu2 receptor (Homo sapiens), entry CCCNc1cc(-c2cnn3c2C(=O)N(c2ccc(C(F)(F)F)c(Cl)c2)C[C@@H]3C)ccn1 [compound 264] , value?
Result: 108%

Q: Observed Emax on human mGlu2 receptor (Homo sapiens) for CC(O)c1cc(-c2cnn3c2C(=O)N(c2ccc(C(F)(F)F)cc2)C[C@@H]3C)ccn1 (stereo partly shown) [compound 128] , please.
Result: 104%

Q: Give Emax (human mGlu2 receptor (Homo sapiens)) of the following compound: CNc1cc(-c2cnn3c2C(=O)N(c2ccc(C(F)(F)F)c(OC)c2)C[C@@H]3C)ccn1 [compound 183]
Result: 103%

Q: # value lookup — system human mGlu2 receptor (Homo sapiens), readout Emax, item Cc1cc(-c2cnn3c2C(=O)N(c2ccc(Cl)c(Cl)c2)C[C@@H]3C)ccn1 [compound 6]
Result: 106%

Q: Field: Emax (human mGlu2 receptor (Homo sapiens)). Entry: Cc1cc(-c2cnn3c2C(=O)N(c2ccc(C(F)(F)F)c(Cl)c2)C[C@@H]3C)cc(C)n1 [compound 43]
Result: 107%

Q: Form field - read-out: Emax; system: human mGlu2 receptor (Homo sapiens); submitted item: Cc1cc(-c2cnn3c2C(=O)N(c2ccc(S(F)(F)(F)(F)F)cc2)C[C@@H]3C)ccn1 [compound 4]
Result: 104%

---

Biological target: human mGlu2 receptor (Homo sapiens, UniProt Q14416)
Construct: expressed in transfected cells; host or cells: CHO cells (membrane preparation)
Assay: [35S]GTPγS binding assay (mGluR2 negative allosteric modulation)
Assay type: biochemical
Details: membranes from CHO cells transfected with human mGlu2 receptor; glutamate 60 μM; pIC50 = −log IC50 (M); read-out: GTPγS - hmGluR2 anGT pIC50 (converted)
Description: 1) [^35S]GTPγS binding assay The [^35S]GTPγS binding assay is a functional membrane-based assay used to study G-protein coupled receptor (GPCR) function whereby incorporation of a non-hydrolysable form of GTP, [^35S]GTPγS (guanosine 5′-triphosphate, labelled with gamma-emitting ^35S), is measured. […] CHO-cells were cultured to pre-confluence and stimulated with 5 mM butyrate for 24 h. […] Protein concentration was determined by the Bradford method (Bio-Rad, USA) with bovine serum albumin as standard. […]
Can you tell me IC50 for the items I'm about to list?
# unit: M | format: bare number

Q: For the compound shown here, "Cc1cc(-c2cnn3c2C(=O)N(c2ccc(C(F)(F)F)c(F)c2)C[C@@H]3C)cc(C)n1" , give the reported IC50.
Result: 2.82e-08

Q: State the recorded IC50 for this entry: "Cc1cc(-c2cnn3c2C(=O)N(c2ccc(C(F)(F)F)cc2)CC3(C)C)ccn1"
Result: 1.7e-05

Q: Item "Cc1cc(-c2cnn3c2C(=O)N(c2ccc(Cl)cc2Cl)C[C@@H]3C)ccn1" has what recorded IC50?
Result: 7.59e-07

Q: Sample "Cc1cc(-c2cnn3c2C(=O)N(c2cc(C)c(C(F)(F)F)cn2)C[C@@H]3C)ccn1" — what was its IC50?
Result: 1.91e-08

Q: Consider the compound shown here: "Cc1cc(-c2cnn3c2C(=O)N(c2ccc(C(F)(F)F)c(C)c2)C[C@@H]3C)cc(C)n1" What is its recorded IC50?
Result: 8.71e-09

Q: Quick one: IC50 of "COc1nc(N2C[C@H](C)n3ncc(-c4ccnc(N(C)C)c4)c3C2=O)ccc1C(F)(F)F" ?
Result: 3.98e-09

Q: # query: IC50 of entry "Cc1cc(-c2cnn3c2C(=O)N(c2ccc(C#N)c(F)c2)C[C@@H]3C)ccn1"
Result: 2.75e-07

Q: Look up IC50 for this compound: "C[C@H]1CN(c2ccc(Cl)c(Cl)c2)C(=O)c2c(-c3ccnc(CF)c3)cnn21"
Result: 7.59e-09

Q: Any idea what its IC50 is? The compound is "CCOc1ccc(C(F)(F)F)c(N2C[C@H](C)n3ncc(-c4ccnc(C)c4)c3C2=O)n1"
Result: 2.57e-05

Q: Could you tell me which IC50 is on file for "Cc1cc(-c2cnn3c2C(=O)N(c2ccc(C(F)(F)F)c(F)c2)C[C@@H]3C)ccn1" ?
Result: 1.17e-08

Q: I would be grateful if you could share the reported IC50 for "C[C@H]1CN(c2ccc(C(F)(F)F)c(OCCF)c2)C(=O)c2c(-c3ccnc(N(C)C)c3)cnn21" .
Result: 8.32e-09

Q: Could you share which IC50 value was measured for "CCOc1ccc(N2C[C@H](C)n3ncc(-c4ccnc(C)c4)c3C2=O)nc1F" ?
Result: 1.07e-06

Q: Name the recorded IC50 for "C[C@H]1CN(c2ccc(Cl)c(Cl)c2)C(=O)c2c(-c3ccncc3)cnn21" .
Result: 1.29e-08
